Just for reference, PubChem BioAssay (NCI) is where these values come from.

test system: UACC-257 melanoma; experiment: NCI tumour cell line growth inhibition, 48 h
reportedEndpoint: TGI

// worked examples, TGI included
molecule	TGI
C[C@H]1CC(=O)C[C@@H]2CC[C@@H]3[C@H](CC[C@]4(C)C(OC(=O)c5cccc6c(=O)c7ccccc7[nH]c56)CC[C@@H]34)[C@]21C (stereo not given in full)	> 100 µM
CCOC(=O)c1nc2ccccc2nc1Oc1ccc(F)cc1	> 100 µM
CCCCCCCCCCCCNC(=O)N[C@H](C(=O)N[C@H]1/C=C/OCCNC(=O)/C=C/[C@H](C(C)C)NC1=O)C(C)C	> 93.7 µM
CC(C)OC(=O)OCOP(=O)(OCOC(=O)OC(C)C)C1CCCN(O)C1=O (stereo not given)	> 100 µM

Consider the record given below.
Lab book: TGI of `CCOc1cc(NC(C)=O)ccc1C(=O)NN1C(=O)/C(=C/c2ccc(Cl)cc2)N=C1c1ccccc1` noted as > 100 µM

----------
test system: SW-620 colon; assay: NCI tumour cell line growth inhibition, 48 h; in the data active means GI50 below about 0.43 µM; inactive means the rest
Return exactly one item of yes (1) (active), no (0) (inactive)

> print(dat)
                                   compound  classassignment
1  COc1ccc2c(c1)OCC1c3cc(OC)ccc3OC21 (stereo not given)           no (0)
2  C=CN(C(=O)N1CCN(c2cc3c(cc2F)c(=O)c(C(=O)O)cn3C2CC2)CC1)c1nc(-c2ccc(C)cc2)cs1           no (0)
3        CCc1ccc2cc3c(ccc4ccccc43)c3c2c1CC3           no (0)
4  CCCN1CCCC(c2ccc(Nc3nc(Nc4cc(F)ccc4C(N)=O)c4cc[nH]c4n3)c(OC)c2)C1 (stereo not given)          yes (1)

Turning now to a further record.
What classification did `CC1(C)CC[C@]2(C(=O)O)CC[C@]3(C)C(=CC[C@@H]4[C@@]5(C)C/C(=C/c6cccnc6)[C@H](O)C(C)(C)[C@@H]5CC[C@]43C)[C@@H]2C1` end up with in this test?
no (0)

----------
Assign TGI to each entry below.
tested on: UACC-257 melanoma; test: NCI tumour cell line growth inhibition, 48 h
Give bare numbers, in µM.

> print(dat)
                  compoundstructure  targetortestsystem  reportedendpoint  resultvalue
1  O=c1[nH]c2c(ccc3cnccc32)c2c1CCC2   UACC-257 melanoma               TGI        0.833

Below: the item to evaluate.
Lab book: TGI of `O=C(c1ccccc1)N1CCc2c([nH]c3ccccc23)C1` noted as 95

----------
test system: HCT-116 colon; assay: NCI tumour cell line growth inhibition, 48 h
So I've got a bunch of compounds here, and I need their TGI values.

Use these answered entries as a reference point.
> print(dat)
                                   compound  resultvalue
1  O=[N+]([O-])c1ccc(-c2ccc([C@H]3CC(c4cc(F)c(Cl)cc4Cl)=NN3)o2)cc1     > 100 µM
2    COC1=C(OC)C(=O)c2cc(C)c(=O)c(C)cc2C1=O      28.9 µM
3  C/C=C/C(C/C=C(\C)CO[Si](C)(C)C(C)(C)C)O[Si](C)(C)C(C)(C)C (stereo not given)     > 100 µM
4  CCOC(=O)n1c(=O)nc2c3c(ncn21)Oc1c(c(-c2ccccc2)nn1-c1ccccc1)C3c1ccc(Cl)cc1 (stereo not given)      2.82 µM

Would you kindly look at the next entry?
TGI in this record for `CCOC(=O)/C(C#N)=c1/s/c(=C(\O)N/N=C/c2ccc(OC)cc2)c(=N)n1-c1ccccc1` : > 100 µM

----------
system: HCT-116 colon; experiment: NCI tumour cell line growth inhibition, 48 h
reportedEndpoint: TGI

# annotated cases, reported TGI shown
compound	TGI
Nc1nc(N)c2nc(CNc3ccc(C(=O)NC(CCC(=O)O)C(=O)O)cc3)cnc2n1 (stereo not drawn)	> 100 µM
C[C@H](O)CCC(=O)c1ccoc1	> 100 µM

# next compound below
# TGI (compound: CC(=O)OCC1OC(Sc2nc(-c3ccccc3)c(C#N)c(=O)n2C2OC(COC(C)=O)C(OC(C)=O)C(OC(C)=O)C2OC(C)=O)C(OC(C)=O)C(OC(C)=O)C1OC(C)=O (stereo not drawn) ) is > 100 µM

----------
system: HOP-92 NSCLC; experiment: NCI tumour cell line growth inhibition, 48 h
reportedEndpoint: TGI (µM)
One number for each entry, in µM.

> print(dat)
                          compoundstructure  units  resultvalue
1       O=C1C/C(=C\c2ccccc2)C(=O)c2ccccc2N1     µM         60.7
2  O=c1c2cc(F)ccc2sc2c(NCCCNCCO)nc3ccc(F)cc3c12     µM          5.2

Provide reported TGI for each item, in the same order as listed.
1. COc1ccc2c(c1)SC1=Nc3sc4cc(OC)ccc4[n+]3CN12
2. O=C(NC(=Nc1ccccc1)SCCSC(=Nc1ccccc1)NC(=O)c1ccccc1)c1ccccc1
3. Cc1n[nH]c(C)c1-c1c(C)n[nH]c1C

[14.6, 58.7, 2.99]

----------
system: NCI-H226 lung; experiment: NCI tumour cell line growth inhibition, 48 h
reportedEndpoint: TGI

Recorded results for 2 compounds are shown here.
> print(dat)
                                   compound  reportedendpoint  resultvalue
1                CCCCCCCCCCCCOC(=N)N1CCOCC1               TGI      37.2 µM
2  CC(C)c1cc(C(C)C)c(S(=O)(=O)N/N=C2\CC3CCC2(C)C3(C)C)c(C(C)C)c1 (stereo not drawn)               TGI        80 µM

List TGI for every entry below, keeping the order given.
1. COC(=O)C(Cc1ccc2c(c1)OCO2)(NC(=O)c1ccccc1)P(=O)(OC)OC (stereo not drawn)
2. C/C(=N\NC(N)=O)C(CN1CCOCC1)C(c1ccccc1)c1c(O)c2ccccc2oc1=O (stereo not drawn)
3. CC(=O)O[C@@H]1[C@H]2O[C@H]2[C@H]2O[C@@]2(COC(=O)c2ccccc2)[C@H]1OC(C)=O
4. Fc1cnccc1-c1nc2ccc3[nH]ncc3c2c2c1CCCC2
5. C=CC(C)(C)[C@@]12CC3C(=O)N[C@@H](Cc4ccccc4)C(=O)N3[C@@H]1N(C(C)=O)c1ccccc12 (stereo partly drawn)

> 100 µM
> 100 µM
> 100 µM
> 100 µM
> 100 µM

Each compound below has a reported value. Please supply its TGI.
1. O=C(NC(=Nc1ccccc1)SCCSC(=Nc1ccccc1)NC(=O)c1ccccc1)c1ccccc1
2. COc1ccc(C2OC2C(=O)C23CC4CC(CC(C4)C2)C3)cc1 (stereo not drawn)
3. CSC(SC)=C1Sc2cccc(Cl)c2S1
4. Cn1c2ccccc2n2c3ccccc3c3nnc(N)c-3c12
5. COC(=O)[C@]1(CCC(C)=O)C(=O)C=CN([C@H](C)c2ccccc2)[C@@H]1Cc1ccc(OC)c(OCc2ccccc2)c1I
6. COc1ccc(-c2cc(-c3ccc(Cl)cc3)c(C#N)c(=O)n2CCCCCC(=O)Nc2ccccc2N)cc1

> 100 µM
> 100 µM
> 100 µM
> 100 µM
34.3 µM
78.9 µM

# map each compound to its TGI
1. Cc1cc(Br)ccc1N=NC1C(=O)ON=C1c1ccccc1 (stereo not drawn)
2. COc1cc(OC)cc(Oc2nc3ccc(C(F)(F)F)cc3nc2-c2ccccc2)c1
3. O=C(O)c1ccc2nc(-c3ccccn3)c(-c3ccccn3)nc2c1

> 100 µM
> 100 µM
> 100 µM

----------
Kindly state TGI for each of the entries shown.
system: 786-0 renal; assay: NCI tumour cell line growth inhibition, 48 h

Answered examples (2):
> print(dat)
                          compoundstructure  reportedendpoint  resultvalue
1  Cc1[nH]n(C(=O)Cc2ccccc2)c(=O)c1/C=C1\C(=O)C=Cc2ccccc21               TGI     > 100 µM
2        c1ccc2sc(C3(N4CCCCCC4)CCCCC3)cc2c1               TGI      42.9 µM

The compound `CCOC(=O)c1cn2c(n1)sc1cc([N+](=O)[O-])ccc12` showed TGI equal to > 100 µM

----------
Provide the reported TGI of each item.
test system: KM12 colon; experiment: NCI tumour cell line growth inhibition, 48 h

Use these answered entries as a reference point.
compound	targetOrTestSystem	resultValue
O=c1ccn([C@@H]2C[C@H](CO)CS(=O)C2)c(=O)[nH]1 (some centres not stated)	KM12 colon	> 100 µM
COc1cnc2c(c1)C(=O)c1c-2n(CCCN2CCNCC2)c(=O)c2cc(F)ccc12	KM12 colon	1.16 µM
COc1ccc(CCN2C(=O)C(=O)C(C(=O)c3ccccc3)C2c2ccccc2)cc1OC (configuration not stated)	KM12 colon	> 100 µM

Batch request: TGI per item, same order as input.
1. COc1ccc(Cc2nc3cc(C(F)(F)F)ccc3n2C[C@@H]2CCCN3CCCCC23)cc1 (some centres not stated)
2. CC(=O)OCC1OC(Sc2nc(-c3ccccc3)c(C#N)c(=O)n2C2OC(COC(C)=O)C(OC(C)=O)C(OC(C)=O)C2OC(C)=O)C(OC(C)=O)C(OC(C)=O)C1OC(C)=O (configuration not stated)
3. CC1CC(=O)C(CC(=O)O)[C@H]1C(C(=O)C(=O)Nc1cc(Cl)ccc1Cl)[N+](=O)[O-] (some centres not stated)
4. COc1cc(CC2c3cc(OC)c(OC)cc3CCN2C)c(C(=O)O)cc1OC (configuration not stated)
5. O=C(O)OC12CCCCCC1C(=O)C1CCCCC12 (configuration not stated)

1. 27.4 µM
2. > 100 µM
3. > 100 µM
4. > 100 µM
5. > 100 µM
